The values you see were collected from paper PMC6753678.

System: P. berghei ookinete development
PROTOCOL CONDITIONS: primary screen at 1 μM, replicate B
ATTRIBUTE MEASURED: % inhibition, Replicate B (%)

> print(dat)
                                   compound                     study.system         attribute.measured  quantitative.result
1  COc1c(F)ccc2ncc(Cl)c(CCN3CCC(NCc4ccc5c(n4)NC(=O)CS5)CC3)c12.Cl  P. berghei ookinete development  % inhibition, Replicate B                63.10
2   CCN1CCN(CCCNc2c3ccccc3nc3ccccc23)CC1.Cl  P. berghei ookinete development  % inhibition, Replicate B                53.70
3           CCCCCCCCc1c(C)[nH]c(C)c(Cl)c1=O  P. berghei ookinete development  % inhibition, Replicate B                90.22
4  COc1ccc2nccc([C@@H](O)CN3C4CCC3CC(NCc3ccc5c(n3)NC(=O)CS5)C4)c2n1.Cl (some centres unmarked)  P. berghei ookinete development  % inhibition, Replicate B                53.20
5  COc1cc(F)c2ncc(C#N)c(CCN3CCC(NCc4ccc5c(c4)OCCO5)CC3)c2c1.Cl  P. berghei ookinete development  % inhibition, Replicate B                59.17
6  COc1ccc2nc(-c3cc(-c4ccc(NC(=O)C(C)C)cc4)cnc3N)[nH]c2c1  P. berghei ookinete development  % inhibition, Replicate B                78.93
7                         O=c1c(Br)ccccc1Br  P. berghei ookinete development  % inhibition, Replicate B                94.32
8  COc1ccc(-c2nc3c(N)nc(N)nc3nc2-c2ccccc2Cl)cc1.COc1ccc(-c2nc3nc(N)nc(N)c3nc2-c2ccccc2Cl)cc1.Cl  P. berghei ookinete development  % inhibition, Replicate B                33.60

====

Tested on: HepG2 cells
TEST SUMMARY: HepG2 cytotoxicity assay
PROTOCOL CONDITIONS: HepG2 cytotoxicity unified across screens; bounds (>) given as plain numbers
# reported Unified cytotox; entries follow
ATTRIBUTE MEASURED: Unified cytotox (µM)

> print(dat)
                                    compound  attribute.measured  unit.descriptor  quantitative.result
 1  Cl.N=c1n(CCN2CCCCC2)c2ccccc2n1CC(O)c1ccc(Cl)c(Cl)c1 (stereo not shown) [TCMDC-124064]     Unified cytotox               µM                 5.20
 2  CCCCCCCn1c(=N)n(CC(O)c2ccc(Cl)c(Cl)c2)c2ccccc21.Cl (stereo not shown) [TCMDC-124065]     Unified cytotox               µM                 6.00
 3  CCCCCOc1ccc(C(O)C(CCC(CN2CCCCCC2)C(O)c2ccc(OCCCCC)cc2)CN2CCCCCC2)cc1.Cl (stereo not shown) [TCMDC-124174]     Unified cytotox               µM                 6.80
 4  Cl.N=c1n(Cc2ccc(Cl)cc2)c2ccccc2n1CC(O)c1ccc(Cl)c(Cl)c1 (stereo not shown) [TCMDC-123813]     Unified cytotox               µM                 6.50
 5  Cc1ccc(-n2nc(-c3ccccc3)c3cc(C(=O)NCCN)sc32)cc1 [TCMDC-124776]     Unified cytotox               µM                 7.83
 6  O=C(O)C(=O)O.Oc1c(CN2CCC(Cc3ccccc3)CC2)cc(Cl)c2cccnc12 [TCMDC-124594]     Unified cytotox               µM                 9.60
 7  COc1ccc(C[C@H](N)C(=O)N[C@H]2[C@@H](O)[C@H](n3cnc4c(N(C)C)ncnc43)O[C@@H]2CO)cc1.Cl [TCMDC-123927]     Unified cytotox               µM                 2.69
 8  COc1ccccc1-c1cccc(-c2cccc(NC(=O)c3ccc([N+](=O)[O-])o3)c2)n1 [TCMDC-124800]     Unified cytotox               µM                11.47
 9  Oc1c(C(Nc2nc3ccccc3s2)c2ccc(OC(F)F)cc2)ccc2cccnc12 (stereo not shown) [TCMDC-124379]     Unified cytotox               µM                24.10
10  CCCCOc1ccc(C(=O)C(CCC(CNC(C)(C)C)C(=O)c2ccc(OCCCC)cc2)CNC(C)(C)C)cc1.Cl (stereo not shown) [TCMDC-124120]     Unified cytotox               µM                 3.10
